- target.of.assay: human LTBR on cells (human, UniProt P36941 31-435)
- test.name: cell-based or functional assay
measure: NFκB luc, 3.66 ng/ml, w/o x linker (RLU)
Numbers only, in RLU.

[[record]]
binder = "P1AE1873 (CBE11) (antibody, human IgG1, kappa, L234A L235A, V domains shown) VH: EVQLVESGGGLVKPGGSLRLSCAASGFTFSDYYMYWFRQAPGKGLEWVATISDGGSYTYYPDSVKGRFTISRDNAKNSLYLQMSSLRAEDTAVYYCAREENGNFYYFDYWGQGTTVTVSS VL: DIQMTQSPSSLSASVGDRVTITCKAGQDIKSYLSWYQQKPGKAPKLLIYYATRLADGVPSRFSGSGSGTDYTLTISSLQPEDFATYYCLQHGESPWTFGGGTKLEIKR"
reading = 20600


# context switch: different binder, same NFκB luc, 3.66 ng/ml, w/o x linker
q: Looking for the measured NFκB luc, 3.66 ng/ml, w/o x linker of P1AF0080 (antibody, human IgG1, kappa, L234A L235A, V domains shown, human IgG1 PG LALA; from transgenic rabbit immunization; also called LTBR (0080)) VH: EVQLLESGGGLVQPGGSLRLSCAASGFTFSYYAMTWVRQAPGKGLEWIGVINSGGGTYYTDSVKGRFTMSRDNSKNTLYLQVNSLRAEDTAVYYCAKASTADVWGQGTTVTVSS VL: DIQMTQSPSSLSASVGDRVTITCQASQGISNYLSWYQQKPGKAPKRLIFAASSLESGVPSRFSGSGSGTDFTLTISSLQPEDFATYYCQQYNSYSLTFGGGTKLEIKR , can you help?
a: 16600
